Listed here are sequences together with their documented self-splicing fitness (ln).
# test protocol: self-splicing fitness, log relative to wild type (ln ratio); higher = more splicing; Tetrahymena group I intron in knt gene, E. coli kanamycin selection, DiMSum; sequences stand for … in CUCUCU…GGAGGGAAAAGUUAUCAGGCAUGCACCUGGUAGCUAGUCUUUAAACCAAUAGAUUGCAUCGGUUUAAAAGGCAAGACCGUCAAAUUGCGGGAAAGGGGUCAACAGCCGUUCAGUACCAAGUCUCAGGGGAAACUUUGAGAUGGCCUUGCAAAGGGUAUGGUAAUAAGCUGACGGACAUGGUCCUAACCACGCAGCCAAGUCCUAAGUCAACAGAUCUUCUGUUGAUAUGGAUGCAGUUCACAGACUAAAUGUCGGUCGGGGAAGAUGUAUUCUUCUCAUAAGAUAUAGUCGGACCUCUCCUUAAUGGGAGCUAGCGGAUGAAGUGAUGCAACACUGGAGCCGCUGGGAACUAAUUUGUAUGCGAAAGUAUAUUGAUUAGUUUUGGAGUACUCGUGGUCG;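 note: selection with 25 µg/mL kanamycin versus none on LB agar overnight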
# protocol conditions: 30 °C
Could you keep your reply to the number by itself?

Form field self-splicing fitness (ln), entry "CCAUAGCAAUAUUACGCGGC" : -4.01

Form field self-splicing fitness (ln), entry "AAAGAGCAAUAUUACGGGAA" : -2.67

Form field self-splicing fitness (ln), entry "AUGAAGCAAUAUUACGAUGA" : -0.515

###

# test protocol: self-splicing fitness, log relative to wild type (ln ratio); higher = more splicing; Tetrahymena group I intron in knt gene, E. coli kanamycin selection, DiMSum; sequences stand for … in CUCUCU…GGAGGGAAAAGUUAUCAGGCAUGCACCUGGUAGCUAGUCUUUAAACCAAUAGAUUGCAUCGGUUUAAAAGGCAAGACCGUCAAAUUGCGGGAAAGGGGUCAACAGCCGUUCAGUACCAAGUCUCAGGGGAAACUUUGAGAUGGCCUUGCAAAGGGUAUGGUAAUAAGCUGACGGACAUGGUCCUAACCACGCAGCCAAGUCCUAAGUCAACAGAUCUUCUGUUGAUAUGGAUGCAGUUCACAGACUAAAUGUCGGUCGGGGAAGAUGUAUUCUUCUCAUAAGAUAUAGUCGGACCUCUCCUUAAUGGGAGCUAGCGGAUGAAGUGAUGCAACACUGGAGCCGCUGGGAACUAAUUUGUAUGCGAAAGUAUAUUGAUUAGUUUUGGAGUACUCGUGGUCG
# protocol conditions: 30 °C
Listed here are sequences together with their documented self-splicing fitness (ln).
Could you keep your reply to the number by itself?

GCGUAGCAAUAUUACGGGGU :: -3.95
UAUGAGCAAUAUUACGAGCA :: -2.47
AACUAGCAAUAUUACGGCGU :: -0.717
UUCAAGCAAUAUUACGGAUU :: -3.19
CUGCAGCAAUAUUACGUGGU :: -3.34
CCCCAGCAAUAUUACGGUCU :: -3.81
ACUCAGCAAUAUUACGAUGU :: -1.35
CAAUAGCAAUAUUACGCUAA :: -3.58

Form field self-splicing fitness (ln), entry "AGGAAGCAAUAUUACGUUAC" : -2.66

Form field self-splicing fitness (ln), entry "AGCAAGCAAUAUUACGCCGC" : -2.89

Form field self-splicing fitness (ln), entry "UCGUAGCAAUAUUACGGCAU" : -3.93

Form field self-splicing fitness (ln), entry "CUUGAGCAAUAUUACGCGUU" : -4.07

Form field self-splicing fitness (ln), entry "AACAAGCAAUAUUACGCUCG" : -0.882
